system: human α7‐only‐nAChR (Homo sapiens, UniProt P36544)
Construct: expressed in transfected cells; host or cells: Xenopus laevis oocytes, cRNA injection
Sequence (P36544 23-502 limits assumed): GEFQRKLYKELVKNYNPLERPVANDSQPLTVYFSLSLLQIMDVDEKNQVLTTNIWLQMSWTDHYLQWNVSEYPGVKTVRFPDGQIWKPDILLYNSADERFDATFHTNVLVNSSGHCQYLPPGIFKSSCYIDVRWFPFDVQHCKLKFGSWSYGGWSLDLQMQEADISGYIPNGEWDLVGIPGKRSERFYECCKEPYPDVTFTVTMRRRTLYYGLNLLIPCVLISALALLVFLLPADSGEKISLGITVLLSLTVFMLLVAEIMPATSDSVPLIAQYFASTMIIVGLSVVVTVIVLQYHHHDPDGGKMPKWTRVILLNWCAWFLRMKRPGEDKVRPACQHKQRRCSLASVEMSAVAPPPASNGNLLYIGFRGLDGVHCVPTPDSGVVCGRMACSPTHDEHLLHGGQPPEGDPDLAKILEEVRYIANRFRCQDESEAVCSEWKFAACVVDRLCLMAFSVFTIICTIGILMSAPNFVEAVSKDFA
runDescription: cell-based
conditionDescription: read-out: k off α7‐only; SEM
assayReadout: log10(koff) (log10 of the value in s⁻¹)

compound	system	log10(koff)
CC(C)C[C@@H]1NC(=O)[C@H](CC(C)C)NC(=O)[C@@H]2CSSC[C@H](NC(=O)CN)C(=O)N[C@@H](CSSC[C@@H](C(N)=O)NC(=O)[C@H](Cc3ccc(O)cc3)NC(=O)[C@H](CC(=O)O)NC(=O)[C@@H]3CCCN3C(=O)[C@H](CC(N)=O)NC(=O)[C@H](CC(N)=O)NC1=O)C(=O)N[C@@H](CO)C(=O)N[C@@H](Cc1c[nH]cn1)C(=O)N1CCC[C@H]1C(=O)N1CCC[C@H]1C(=O)N2 [[F9L]]	human α7‐only‐nAChR (Homo sapiens, UniProt P36544)	-3.20
NCC(=O)N[C@H]1CSSC[C@@H]2NC(=O)[C@@H]3CCCN3C(=O)[C@@H]3CCCN3C(=O)[C@H](Cc3c[nH]cn3)NC(=O)[C@H](CO)NC(=O)[C@H](CSSC[C@@H](C(N)=O)NC(=O)[C@H](Cc3ccc(O)cc3)NC(=O)[C@H](CC(=O)O)NC(=O)[C@@H]3CCCN3C(=O)[C@H](CC(N)=O)NC(=O)[C@H](CC(N)=O)NC(=O)[C@H](Cc3ccc(O)cc3)NC(=O)[C@H](Cc3ccccc3)NC2=O)NC1=O [[L10Y]]	human α7‐only‐nAChR (Homo sapiens, UniProt P36544)	-2.36
CC(C)C[C@@H]1NC(=O)[C@H](Cc2ccccc2)NC(=O)[C@@H]2CSSC[C@H](NC(=O)CN)C(=O)N[C@@H](CSSC[C@@H](C(N)=O)NC(=O)[C@H](Cc3ccc(O)cc3)NC(=O)[C@H](CC(=O)O)NC(=O)[C@@H]3CCCN3C(=O)[C@H](CC(N)=O)NC(=O)[C@H](CC(N)=O)NC1=O)C(=O)N[C@@H](CCCNC(=N)N)C(=O)N[C@@H](Cc1c[nH]cn1)C(=O)N1CCC[C@H]1C(=O)N1CCC[C@H]1C(=O)N2 [[S4R]]	human α7‐only‐nAChR (Homo sapiens, UniProt P36544)	-3.22
CC(C)C[C@@H]1NC(=O)[C@H](Cc2ccccc2)NC(=O)[C@@H]2CSSC[C@H](NC(=O)CN)C(=O)N[C@@H](CSSC[C@@H](C(N)=O)NC(=O)[C@H](CC(=O)O)NC(=O)[C@H](CC(=O)O)NC(=O)[C@@H]3CCCN3C(=O)[C@H](CC(N)=O)NC(=O)[C@H](CC(N)=O)NC1=O)C(=O)N[C@@H](CO)C(=O)N[C@@H](Cc1c[nH]cn1)C(=O)N1CCC[C@H]1C(=O)N1CCC[C@H]1C(=O)N2 [[Y15D]]	human α7‐only‐nAChR (Homo sapiens, UniProt P36544)	-2.95
CC(C)C[C@@H]1NC(=O)[C@H](Cc2ccccc2)NC(=O)[C@@H]2CSSC[C@H](NC(=O)CN)C(=O)N[C@@H](CSSC[C@@H](C(N)=O)NC(=O)[C@H](Cc3ccc(O)cc3)NC(=O)[C@H](CCC(=O)O)NC(=O)[C@@H]3CCCN3C(=O)[C@H](CC(N)=O)NC(=O)[C@H](CC(N)=O)NC1=O)C(=O)N[C@@H](CO)C(=O)N[C@@H](Cc1c[nH]cn1)C(=O)N1CCC[C@H]1C(=O)N1CCC[C@H]1C(=O)N2 [[D14E]]	human α7‐only‐nAChR (Homo sapiens, UniProt P36544)	-3.95
CC(C)C[C@@H]1NC(=O)[C@H](Cc2ccccc2)NC(=O)[C@@H]2CSSC[C@H](NC(=O)CN)C(=O)N[C@@H](CSSC[C@@H](C(N)=O)NC(=O)[C@H](Cc3ccc(O)cc3)NC(=O)[C@H](CC(=O)O)NC(=O)[C@@H]3CCCN3C(=O)[C@H](Cc3c[nH]cn3)NC(=O)[C@H](CC(N)=O)NC1=O)C(=O)N[C@@H](CO)C(=O)N[C@@H](Cc1c[nH]cn1)C(=O)N1CCC[C@H]1C(=O)N1CCC[C@H]1C(=O)N2 [[N12H]]	human α7‐only‐nAChR (Homo sapiens, UniProt P36544)	-2.96
